Reported IC50 values follow for various compounds
- System: CEM cells HIV-1 protection, formazan growth assay
- measurement_description: NCI AIDS Antiviral Assay
- run_conditions: measured here: growth of uninfected CEM cells
parameter_measured: IC50 (µM)

>>> value_reported("O=C1/C(=C/c2ccc(Cl)c(Cl)c2)CCC/C1=C\\c1ccc(Cl)c(Cl)c1")
2.95
>>> value_reported("COc1ccc(N2CCN(c3ccc4c(c3)NCC(=O)N4)CC2)cc1")
45.7
>>> value_reported("Cc1ccc(C2CC(c3ccc([N+](=O)[O-])cc3)=Nc3ccccc3S2)cc1 (stereo unspecified)")
7.76
>>> value_reported("C[CH2][Sn]([CH2]C)([O]C(=O)c1ccccc1F)[O]C(=O)c1ccccc1F")
17.4
>>> value_reported("COC(=O)N/N=C(\\c1ccccc1)c1ccc(OC)cc1")
112
>>> value_reported("O=C(CC1(O)C(=O)Nc2c(Cl)ccc(Cl)c21)c1ccc2ccccc2c1 (stereo unspecified)")
14.5
>>> value_reported("COC(=O)c1c(-c2cc(OC)c(OC)c(OC)c2)oc2ccccc2c1=O")
1.45
>>> value_reported("COc1cccc(C=O)c1[O-].COc1cccc(C=O)c1[O-].[Ni+2]")
35.5
>>> value_reported("OC1(c2ccccc2)c2ccccc2Oc2ccccc21")
17.4
>>> value_reported("COc1cc2c(c(OC)c1)C(C)=NC(C)C2 (stereo unspecified)")
141
>>> value_reported("COc1ccc2c(c1)OC(OC)(c1ccccc1)C(O)(OC)C2=O (stereo unspecified)")
15.1

Values from PubChem BioAssay AID179
